molecular target: JAK3 (Homo sapiens (Human)); assay: Z′-Lyte kinase inhibitory activity test; assay type: biochemical; details: ATP concentration 1 mM
Sequence (P52333 whole entry): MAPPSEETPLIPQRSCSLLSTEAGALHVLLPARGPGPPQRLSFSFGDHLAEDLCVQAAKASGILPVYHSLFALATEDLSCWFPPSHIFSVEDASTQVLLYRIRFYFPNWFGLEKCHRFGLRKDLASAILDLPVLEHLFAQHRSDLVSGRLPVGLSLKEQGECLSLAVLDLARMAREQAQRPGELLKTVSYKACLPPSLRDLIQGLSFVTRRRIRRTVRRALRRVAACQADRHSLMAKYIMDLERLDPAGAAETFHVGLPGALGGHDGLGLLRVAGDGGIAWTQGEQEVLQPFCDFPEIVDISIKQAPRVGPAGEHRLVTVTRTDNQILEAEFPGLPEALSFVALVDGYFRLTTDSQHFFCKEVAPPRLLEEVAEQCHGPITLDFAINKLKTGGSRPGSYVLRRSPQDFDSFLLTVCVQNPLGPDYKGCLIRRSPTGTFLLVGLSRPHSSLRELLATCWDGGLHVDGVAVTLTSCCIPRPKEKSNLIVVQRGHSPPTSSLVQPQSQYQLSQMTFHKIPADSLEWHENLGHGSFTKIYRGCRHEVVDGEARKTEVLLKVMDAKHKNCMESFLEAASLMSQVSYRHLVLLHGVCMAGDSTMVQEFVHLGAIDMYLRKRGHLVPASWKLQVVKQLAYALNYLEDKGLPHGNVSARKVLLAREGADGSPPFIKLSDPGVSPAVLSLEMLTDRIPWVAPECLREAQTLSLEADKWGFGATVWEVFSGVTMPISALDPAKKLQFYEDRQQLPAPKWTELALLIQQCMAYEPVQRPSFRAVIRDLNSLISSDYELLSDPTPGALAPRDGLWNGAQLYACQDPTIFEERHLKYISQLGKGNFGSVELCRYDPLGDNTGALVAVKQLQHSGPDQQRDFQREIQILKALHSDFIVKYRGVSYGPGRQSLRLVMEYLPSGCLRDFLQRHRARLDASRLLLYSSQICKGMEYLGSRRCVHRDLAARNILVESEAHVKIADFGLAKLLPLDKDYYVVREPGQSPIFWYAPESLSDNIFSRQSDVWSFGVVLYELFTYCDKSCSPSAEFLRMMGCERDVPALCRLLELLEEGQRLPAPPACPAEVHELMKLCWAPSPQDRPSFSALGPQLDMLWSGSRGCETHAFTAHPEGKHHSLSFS
measured.attribute: IC50 (nM)
Numeric only. Scale: nM

Observed IC50, JAK3 (Homo sapiens (Human)), C=CC(=O)Nc1cc(Nc2ncc(Cl)c(O[C@@H]3CO[C@H]4[C@@H]3OC[C@@H]4F)n2)ccc1N1CCN(CC)CC1 : 7.14

Reading of IC50 for C=CC(=O)Nc1cc(Nc2ncc(Cl)c(O[C@@H]3CO[C@H]4[C@@H]3OC[C@H]4O)n2)ccc1N1C[C@@H]2C[C@H]1CO2 with JAK3 (Homo sapiens (Human)): 1.29

Bench note, JAK3 (Homo sapiens (Human)): entry C=CC(=O)Nc1cc(Nc2ncc(Cl)c(O[C@@H]3CO[C@H]4[C@@H]3OC[C@@H]4F)n2)ccc1N(C)CCN(C)C , its IC50 = 1.55

====

system: human T lymphocyte leukemia cell line HuT78; assay: CCK-8 in vitro proliferation inhibition; assay type: cell-based; details: Homo sapiens, HuT78, 72 hours, read-out: Inhibitory activity (IC50) on cell proliferation, HUT78
pIC50 values by entry
Note: pIC50 values are expressed as the negative base-10 logarithm of concentration in M.

1. CN1CCN(C2CCN(c3ccc(Nc4ncc(Cl)c(O[C@@H]5CO[C@H]6[C@@H]5OC[C@H]6O)n4)cc3)CC2)CC1 [LS 4-145] | 5.62
2. C=CC(=O)Nc1cc(Nc2ncc(Cl)c(O[C@@H]3CO[C@H]4[C@@H]3OC[C@H]4O)n2)ccc1N1C[C@H]2C[C@@H]1CN2C [LS 5-154] | 6.14

With those in mind, consider the next compound.
The measured pIC50 associated with C=CC(=O)Nc1cc(Nc2ncc(Cl)c(O[C@@H]3CO[C@H]4[C@@H]3OC[C@H]4O)n2)ccc1N1C[C@@H]2C[C@H]1CO2 [LS 5-152] reads 6.37

====

# pIC50 per record follows
molecular target: JAK1 (Homo sapiens (Human)); assay: Z′-Lyte kinase inhibitory activity test; type: biochemical; settings: ATP concentration Km
Sequence (P23458 whole entry): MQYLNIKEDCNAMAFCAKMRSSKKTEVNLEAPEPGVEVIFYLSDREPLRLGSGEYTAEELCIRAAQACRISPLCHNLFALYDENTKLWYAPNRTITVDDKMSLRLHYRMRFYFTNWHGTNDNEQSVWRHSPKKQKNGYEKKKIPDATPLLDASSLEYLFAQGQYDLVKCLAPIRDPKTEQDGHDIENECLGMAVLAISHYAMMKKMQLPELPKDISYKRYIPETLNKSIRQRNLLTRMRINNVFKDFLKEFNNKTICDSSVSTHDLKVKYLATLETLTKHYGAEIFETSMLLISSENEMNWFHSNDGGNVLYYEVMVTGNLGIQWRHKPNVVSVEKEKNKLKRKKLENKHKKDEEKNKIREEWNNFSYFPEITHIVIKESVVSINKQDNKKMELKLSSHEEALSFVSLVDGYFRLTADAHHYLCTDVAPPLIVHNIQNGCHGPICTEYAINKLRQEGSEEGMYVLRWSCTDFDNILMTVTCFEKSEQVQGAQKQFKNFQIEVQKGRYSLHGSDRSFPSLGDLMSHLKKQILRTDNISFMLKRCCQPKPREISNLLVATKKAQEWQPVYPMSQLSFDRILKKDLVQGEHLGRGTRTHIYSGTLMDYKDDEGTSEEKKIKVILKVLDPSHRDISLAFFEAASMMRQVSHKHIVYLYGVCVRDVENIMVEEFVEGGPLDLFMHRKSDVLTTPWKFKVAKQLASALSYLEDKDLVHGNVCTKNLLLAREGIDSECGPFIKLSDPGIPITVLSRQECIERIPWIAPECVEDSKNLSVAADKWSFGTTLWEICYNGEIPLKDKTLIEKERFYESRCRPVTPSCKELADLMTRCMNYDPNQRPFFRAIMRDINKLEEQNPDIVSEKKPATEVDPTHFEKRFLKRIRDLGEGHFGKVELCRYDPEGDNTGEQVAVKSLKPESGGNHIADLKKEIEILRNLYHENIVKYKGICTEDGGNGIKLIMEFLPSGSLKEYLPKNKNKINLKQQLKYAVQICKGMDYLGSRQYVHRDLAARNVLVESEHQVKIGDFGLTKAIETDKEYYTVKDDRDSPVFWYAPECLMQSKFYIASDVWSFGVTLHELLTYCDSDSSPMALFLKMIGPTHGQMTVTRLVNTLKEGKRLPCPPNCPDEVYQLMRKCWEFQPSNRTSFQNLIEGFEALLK
Please keep in mind that pIC50 is minus log10 of the molar concentration; only the number is needed.

1) C=CC(=O)Nc1cc(Nc2ncc(Cl)c(O[C@@H]3CO[C@H]4[C@@H]3OC[C@@H]4F)n2)ccc1N(C)CCN(C)C [LS 6-77] | 4.47

Value of measured pIC50 for the entry C=CC(=O)Nc1cc(Nc2ncc(Cl)c(O[C@@H]3CO[C@H]4[C@@H]3OC[C@H]4O)n2)ccc1N1CCN(CC)CC1 [LS 5-143] : 6.32

Entry CN1CCN(C2CCN(c3ccc(Nc4ncc(Cl)c(O[C@@H]5CO[C@H]6[C@@H]5OC[C@H]6O)n4)cc3)CC2)CC1 [LS 4-145] , pIC50 reported as 6.33

So for C/C=C/C(=O)Nc1cc(Nc2ncc(Cl)c(O[C@@H]3CO[C@H]4[C@@H]3OC[C@H]4O)n2)ccc1N1CCC(N2CCN(C)CC2)CC1 [LS 5-72] , the logged pIC50 turned out to be 5.57

In plain terms, C=CC(=O)Nc1cccc(Nc2ncc(Cl)c(O[C@@H]3CO[C@H]4[C@@H]3OC[C@H]4O)n2)c1 [LS 5-77] has a documented pIC50 of 6.26

So, C=CC(=O)Nc1cc(Nc2ncc(Cl)c(O[C@@H]3CO[C@@H]4CCO[C@@H]43)n2)ccc1N(C)CCN(C)C [LS 6-121] ? Its pIC50 was 5.53

So, C=CC(=O)Nc1cc(Nc2ncc(Cl)cn2)ccc1N1CCC(N2CCN(C)CC2)CC1 [LS 5-126] ? Its pIC50 was 5.32

Value of measured pIC50 for the entry C=CC(=O)Nc1cc(Nc2ncc(Cl)c(O[C@@H]3CO[C@H]4[C@@H]3OC[C@H]4OCC)n2)ccc1N(C)CCN(C)C [LS 7-13] : 5.07

Per the record, C=CC(=O)Nc1cc(Nc2ncc(Cl)c(O[C@@H]3CO[C@H]4[C@@H]3OC[C@H]4O)n2)ccc1N1CCC(N(C)C)C1 (stereo partly drawn) [LS 5-150] has pIC50 of 6.57

According to the records, this molecule C=CC(=O)Nc1cc(Nc2ncc(Cl)c(O[C@@H]3CO[C@H]4[C@@H]3OC[C@H]4O)n2)ccc1N1CCC(N2CCN(C)CC2)CC1 [LS 5-12] displays pIC50 of 5.81

Kindly note the recorded pIC50 for C=CC(=O)Nc1cc(Nc2ncc(Cl)c(O[C@@H]3CO[C@H]4[C@@H]3OC[C@H]4F)n2)ccc1N(C)CCN(C)C [LS 6-88] , which is 4.06

# molecule C=CC(=O)Nc1cc(Nc2ncc(Cl)c(O[C@@H]3CO[C@H]4[C@@H]3OC[C@H]4OC)n2)ccc1N1CCOCC1 [LS 6-48] ; its pIC50 = 5.56

Entry C=CC(=O)Nc1cc(Nc2ncc(Cl)c(O[C@@H]3CO[C@H]4[C@@H]3OC[C@H]4O)n2)ccc1N1C[C@@H]2C[C@H]1CO2 [LS 5-152] — recorded pIC50 = 6.72

For this molecule ( C=CC(=O)Nc1cc(Nc2ncc(C)c(O[C@@H]3CO[C@H]4[C@@H]3OC[C@H]4O)n2)ccc1N1CCC(N2CCN(C)CC2)CC1 [LS 5-133] ), measured pIC50 is 6.16

// pIC50 lookup, molecule = C=CC(=O)Nc1cc(Nc2ncc(Cl)c(O[C@@H]3CO[C@H]4[C@@H]3OC[C@@H]4F)n2)ccc1N1CCN(CC)CC1 [LS 6-78] , result: 4.90

Entry C=CC(=O)Nc1cc(Nc2ncc(Cl)c(O[C@@H]3CO[C@H]4[C@@H]3OC[C@@H]4F)n2)ccc1N1CCC(N2CCN(C)CC2)CC1 [LS 6-59] ; pIC50 = 5.15

====

tested on: human chronic myeloid leukemia cell line K562; assay: CCK-8 in vitro proliferation inhibition; assay type: cell-based; conditions: Homo sapiens, K562, 72 hours, read-out: Inhibitory activity (IC50) on cell proliferation, K562
Attribute: pIC50
Note on units: pIC50 is unitless, being -log10 of a concentration expressed in mol/L.

Solved entries:
1. CN1CCN(C2CCN(c3ccc(Nc4ncc(Cl)c(O[C@@H]5CO[C@H]6[C@@H]5OC[C@H]6O)n4)cc3)CC2)CC1 [LS 4-145] | 6.09
2. C=CC(=O)Nc1cc(Nc2ncc(Cl)c(O[C@@H]3CO[C@H]4[C@@H]3OC[C@H]4O)n2)ccc1N(C)CCN(C)C [LS 5-88] | 6.38
3. C=CC(=O)Nc1cc(Nc2ncc(Cl)c(O[C@@H]3CO[C@H]4[C@@H]3OC[C@H]4OC)n2)ccc1N(C)CCN(C)C [LS 6-45] | 6.47

get_value(item= CN1CCN(C2CCN(c3ccc(Nc4ncc(Cl)c(O[C@@H]5CO[C@H]6[C@@H]5OC[C@H]6O)n4)cc3Cl)CC2)CC1 [LS 4-104] , readout=pIC50) returns 6.27

====

experiment: Rat liver microsomes stability test; assay type: in vitro ADME; conditions: rat, liver microsomes, pH 7.4, rat liver microsomes; read-out: Clint
measured.attribute: CLint scaled at 1 µM (mL/min/kg)
// units = mL/min/kg; emit number, no label

Data point: O=C(c1ccc(F)cc1)C1CCN(CCn2c(=O)[nH]c3ccccc3c2=O)CC1 [ketanserin, reference compound] ; CLint scaled at 1 µM = 133

====

target: JAK2 (Homo sapiens (Human)); experiment: Z′-Lyte kinase inhibitory activity test; format: biochemical; settings: ATP concentration Km
Sequence (O60674 whole entry): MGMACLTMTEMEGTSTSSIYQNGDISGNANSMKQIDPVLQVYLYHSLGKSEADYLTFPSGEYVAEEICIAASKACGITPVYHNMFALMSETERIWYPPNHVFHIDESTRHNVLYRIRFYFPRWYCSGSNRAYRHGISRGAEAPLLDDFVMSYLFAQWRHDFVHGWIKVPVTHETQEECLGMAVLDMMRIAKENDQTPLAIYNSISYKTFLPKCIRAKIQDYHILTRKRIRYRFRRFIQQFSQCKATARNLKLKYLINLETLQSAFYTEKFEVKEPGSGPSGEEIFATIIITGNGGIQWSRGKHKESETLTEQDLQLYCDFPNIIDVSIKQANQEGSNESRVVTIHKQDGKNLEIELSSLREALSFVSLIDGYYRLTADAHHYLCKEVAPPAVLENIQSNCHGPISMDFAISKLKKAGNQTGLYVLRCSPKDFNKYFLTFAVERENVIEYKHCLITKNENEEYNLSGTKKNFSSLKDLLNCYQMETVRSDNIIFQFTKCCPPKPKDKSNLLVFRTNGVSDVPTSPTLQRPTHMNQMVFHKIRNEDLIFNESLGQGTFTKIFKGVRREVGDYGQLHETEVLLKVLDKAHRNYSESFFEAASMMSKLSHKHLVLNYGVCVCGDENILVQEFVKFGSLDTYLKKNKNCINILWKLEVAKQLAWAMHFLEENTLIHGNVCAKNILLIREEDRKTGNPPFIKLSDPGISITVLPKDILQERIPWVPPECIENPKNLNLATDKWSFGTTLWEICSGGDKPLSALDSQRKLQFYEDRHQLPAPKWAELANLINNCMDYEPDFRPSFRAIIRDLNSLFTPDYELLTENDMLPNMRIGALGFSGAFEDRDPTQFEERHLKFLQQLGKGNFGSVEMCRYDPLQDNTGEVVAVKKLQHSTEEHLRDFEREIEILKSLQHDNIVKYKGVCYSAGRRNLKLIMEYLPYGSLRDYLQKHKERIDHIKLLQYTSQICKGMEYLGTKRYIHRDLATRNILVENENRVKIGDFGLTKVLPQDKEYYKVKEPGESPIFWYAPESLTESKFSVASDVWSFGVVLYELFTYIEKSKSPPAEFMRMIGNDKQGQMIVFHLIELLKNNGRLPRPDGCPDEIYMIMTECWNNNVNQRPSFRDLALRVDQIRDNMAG
measured.attribute: log10 of IC50 (log10 of the value in nM)
Please note: log10 values; quantity IC50; unit nM.

Below: 10 compounds and their reported log10 of IC50.
1. C=CC(=O)Nc1cc(Nc2ncc(Cl)c(O[C@@H]3CO[C@H]4[C@@H]3OC[C@H]4O)n2)ccc1N1C[C@H]2C[C@@H]1CN2C | 2.72
2. C=CC(=O)Nc1cc(Nc2ncc(Cl)c(O[C@@H]3CO[C@H]4[C@@H]3OC[C@H]4O)n2)ccc1N(C)CCO | 3.18
3. C=CC(=O)Nc1cc(Nc2ncc(Cl)cn2)ccc1N1CCC(N2CCN(C)CC2)CC1 | 3.32
4. CN(C)C/C=C/C(=O)Nc1cc(Nc2ncc(Cl)c(O[C@@H]3CO[C@H]4[C@@H]3OC[C@H]4O)n2)ccc1N1CCC(N2CCN(C)CC2)CC1 | 3.37
5. CN1CCN(C2CCN(c3ccc(Nc4ncc(Cl)c(O[C@H]5CO[C@H]6[C@@H]5OC[C@H]6O)n4)cc3Cl)CC2)CC1 | 3.91
6. C=CC(=O)Nc1cc(Nc2ncc(Cl)c(O[C@@H]3CO[C@H]4[C@@H]3OC[C@H]4O)n2)ccc1N1CCN(CC)CC1 | 2.56
7. CN1CCN(C2CCN(c3ccc(Nc4ncc(Cl)c(O[C@@H]5CO[C@H]6[C@@H]5OC[C@H]6O)n4)cc3Cl)CC2)CC1 | 2.47
8. CN1CCN(C2CCN(c3c(Cl)cc(Nc4ncc(Cl)c(O[C@@H]5CO[C@H]6[C@@H]5OC[C@H]6O)n4)cc3Cl)CC2)CC1 | 2.98
9. C=CC(=O)Nc1cc(Nc2ncc(Cl)c(O[C@@H]3CO[C@H]4[C@@H]3OC[C@@H]4F)n2)ccc1N1CCN(CC)CC1 | 3.22
10. C=CC(=O)Nc1cc(Nc2ncc(Cl)c(O[C@@H]3CO[C@H]4[C@@H]3OC[C@H]4O)n2)ccc1N1CCC2(CCN(C)CC2)CC1 | 3.03

# next compound below
The compound identified as CN1CCN(C2CCN(c3ccc(Nc4ncc(Cl)c(O[C@@H]5CO[C@H]6[C@@H]5OC[C@H]6O)n4)cc3)CC2)CC1 registered its log10 of IC50 at 2.99

Data origin, for the record: patent US20230348487A1
